Numbers sourced from ChEMBL document CHEMBL3259678.

Biological target: Proteasome subunit beta type-8 (Homo sapiens) (UniProt P28062)
Sequence (whole entry): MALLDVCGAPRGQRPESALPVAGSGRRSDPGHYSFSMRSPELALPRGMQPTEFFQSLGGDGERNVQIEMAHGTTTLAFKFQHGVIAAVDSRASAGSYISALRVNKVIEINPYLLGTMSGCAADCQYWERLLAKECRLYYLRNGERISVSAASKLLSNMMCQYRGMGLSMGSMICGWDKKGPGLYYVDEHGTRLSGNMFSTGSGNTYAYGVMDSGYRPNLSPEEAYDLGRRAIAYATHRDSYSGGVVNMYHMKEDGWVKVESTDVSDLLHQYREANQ
Test: Ratio of Kinact to Ki for immunoproteasome-20S subunit beta5i in human PBMC using suc-LLVY-AMC as substrate measured for 120 mins by fluorescence analysis
recorded_endpoint: Ratio (M⁻¹ s⁻¹)

// solved cases for Ratio follow
{"chem_smiles": "O=c1oc(-c2cccc([N+](=O)[O-])c2)ns1", "Ratio (M⁻¹ s⁻¹)": 913}
{"chem_smiles": "O=c1oc(-c2cc(O)c(O)c(O)c2)ns1", "Ratio (M⁻¹ s⁻¹)": 239}
{"chem_smiles": "CC(=O)Nc1cccc(-c2nsc(=O)o2)c1", "Ratio (M⁻¹ s⁻¹)": 83}
{"chem_smiles": "O=c1oc(-c2ccc3[nH]ccc3c2)ns1", "Ratio (M⁻¹ s⁻¹)": 225}

P: CC(=O)N[C@H](Cc1ccccc1)C(=O)Nc1cccc(-c2nsc(=O)o2)c1
Q: O=c1oc(-c2cccc(CN3CCOCC3)c2)ns1
*Q* // compare measured Ratio between P and Q ; output the lower one Indicate your choice by writing its label.
*A* P

a: CC(C)(C)OC(=O)Nc1ccc(-c2nsc(=O)o2)cc1
b: CC(=O)N[C@@H](Cc1ccccc1)C(=O)Nc1ccc(-c2nsc(=O)o2)cc1
c: O=c1oc(-c2ccc(-c3ccccc3)cc2)ns1
*Q* Rank entries according to their Ratio, from the largest number down. A ranking is expressed here by listing the labels in the requested order.
*A* c, a, b

a: O=c1oc(-c2cccc(F)c2)ns1
b: CC(=O)N[C@H](Cc1ccccc1)C(=O)Nc1ccc(-c2nsc(=O)o2)cc1
c: Cc1sc(-c2nsc(=O)o2)cc1[N+](=O)[O-]
d: [N-]=[N+]=Nc1ccc(-c2nsc(=O)o2)cc1
*Q* # ascending order, key=Ratio Please, when replying, give the labels in the order that was requested.
*A* a, b, d, c
(a: 20 M⁻¹ s⁻¹, b: 151 M⁻¹ s⁻¹, d: 263 M⁻¹ s⁻¹, c: 1010 M⁻¹ s⁻¹)

P: O=c1oc(-c2ccccn2)ns1
Q: O=c1oc(-c2ccccc2C(F)(F)F)ns1
*Q* Min Ratio? P | Q Selection: enter the item's label.
*A* P
(P: 129 M⁻¹ s⁻¹, Q: 187 M⁻¹ s⁻¹)

---

Organism: Homo sapiens
Assay: Ratio of Kinact/Ki for immunoproteasome-20S subunit beta5i in human PBMC to Kinact/Ki for constitutive proteasome 20S subunit beta5c in human RBC
recorded_endpoint: Ratio

{"chem_smiles": "[N-]=[N+]=Nc1ccc(-c2nsc(=O)o2)cc1", "Ratio": 11}
{"chem_smiles": "O=c1oc(-c2ccc3[nH]ccc3c2)ns1", "Ratio": 1730}
{"chem_smiles": "O=c1oc(-c2cccc([N+](=O)[O-])c2)ns1", "Ratio": 89}
{"chem_smiles": "O=c1oc(-c2cccc(F)c2)ns1", "Ratio": 1.5}
{"chem_smiles": "O=c1oc(-c2ccccc2)ns1", "Ratio": 8}

a: O=c1oc(-c2ccccc2C(F)(F)F)ns1
b: CC(=O)N[C@H](Cc1ccccc1)C(=O)Nc1cccc(-c2nsc(=O)o2)c1
*Q* Pick one: a or b . Which one has the lower reported Ratio? Record your answer as the label of the chosen record.
*A* b

---

Organism: Homo sapiens
Assay: Ratio of Kinact/Ki for immunoproteasome-20S subunit beta5i in human PBMC to Kinact/Ki for constitutive proteasome 20S subunit beta5c in human RBC
recorded_endpoint: Ratio

Reference set (2 entries):
{"chem_smiles": "O=c1oc(-c2cc(O)c(O)c(O)c2)ns1", "Ratio": 171}
{"chem_smiles": "O=c1oc(-c2ccccn2)ns1", "Ratio": 645}

P: CC(C)(C)OC(=O)Nc1ccc(-c2nsc(=O)o2)cc1
Q: CC(=O)N[C@@H](Cc1ccccc1)C(=O)Nc1ccc(-c2nsc(=O)o2)cc1
*Q* Could you kindly indicate whether P or Q has the higher Ratio value? Lab log: write the label of the selected item as the result.
*A* Q

---

Species on record: Homo sapiens
Test: Ratio of Kinact/Ki for immunoproteasome-20S subunit beta5i in human PBMC to Kinact/Ki for constitutive proteasome 20S subunit beta5c in human RBC
recorded_endpoint: Ratio

// known answers, use as guide
{"chem_smiles": "CC(=O)Nc1cccc(-c2nsc(=O)o2)c1", "Ratio": 26}
{"chem_smiles": "CC(=O)N[C@H](Cc1ccccc1)C(=O)Nc1ccc(-c2nsc(=O)o2)cc1", "Ratio": 215}

A: O=c1oc(-c2ccc(-c3ccccc3)cc2)ns1
B: O=c1oc(-c2cccc(-c3ccccc3)c2)ns1
*Q* Record comparison, field Ratio: mark the lower of A and B . Return value: the label identifying the chosen record.
*A* B
